Recorded values, source patent US8541449B2.

STUDY_SYSTEM: recombinant human PKG1-beta (Homo sapiens, UniProt Q13976)
Construct: Active recombinant human PKG1-beta (full-length, with N-terminal His-tag); His-tag (N); purchased Millipore GmbH, Schwalbach, Germany
Sequence (Q13976 1-686 isoform Q13976-2): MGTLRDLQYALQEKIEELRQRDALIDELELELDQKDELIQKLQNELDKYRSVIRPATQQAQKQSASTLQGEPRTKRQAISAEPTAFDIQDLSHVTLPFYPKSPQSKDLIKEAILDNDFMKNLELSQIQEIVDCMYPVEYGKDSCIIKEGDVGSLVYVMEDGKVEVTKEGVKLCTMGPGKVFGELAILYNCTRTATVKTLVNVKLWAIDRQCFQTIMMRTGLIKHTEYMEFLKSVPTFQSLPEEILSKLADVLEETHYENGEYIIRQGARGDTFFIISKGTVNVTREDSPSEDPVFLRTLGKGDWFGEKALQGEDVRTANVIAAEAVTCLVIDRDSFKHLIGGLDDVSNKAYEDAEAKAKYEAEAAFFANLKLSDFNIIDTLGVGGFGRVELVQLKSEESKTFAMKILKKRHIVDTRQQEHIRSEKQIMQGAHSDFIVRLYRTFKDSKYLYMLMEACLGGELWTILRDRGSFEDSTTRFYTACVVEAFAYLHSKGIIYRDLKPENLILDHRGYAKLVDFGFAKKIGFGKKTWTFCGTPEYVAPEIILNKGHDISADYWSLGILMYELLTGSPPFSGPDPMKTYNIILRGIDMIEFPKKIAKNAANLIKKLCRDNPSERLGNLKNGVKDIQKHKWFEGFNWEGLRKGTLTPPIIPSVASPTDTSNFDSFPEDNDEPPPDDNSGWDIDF
ASSAY_REMARKS: Determination of Protein Kinase G inhibition (Caliper peptide phosphorylation assay)
Assay type: biochemical
TEST_CONDITIONS: recombinant human PKG1-beta versus ROCK II
QUANTITY_NAME: Selectivity against PKG

Please review the following examples before continuing.
CCC(N)[C@]1(c2cccc(S(C)(=O)=O)c2)CC[C@H](Oc2cc3cc[nH]c(=O)c3cc2Cl)CC1 (stereo partly shown) : >100
CCC(N)[C@]1(c2cccc(C(F)(F)F)c2)CC[C@H](Oc2cc3cc[nH]c(=O)c3cc2Cl)CC1 (stereo partly shown) : >10

Selectivity against PKG lookup needed for CC(N)[C@]1(c2ccccc2)CC[C@H](Oc2cc3cc[nH]c(=O)c3cc2Cl)CC1 (stereo partly shown) , thanks. >300

Selectivity against PKG lookup needed for CCC(N)(CC)C1CCC(Oc2cc3cc[nH]c(=O)c3cc2Cl)CC1 (single isomer, unassigned) , thanks. >10

Selectivity against PKG lookup needed for CCC(N)[C@]1(c2ccc(F)cc2F)CC[C@H](Oc2cc3cc[nH]c(=O)c3cc2Cl)CC1 (stereo partly shown) , thanks. >300

Selectivity against PKG lookup needed for CCC(N)[C@]1(c2ccc(C(C)C)cc2)CC[C@H](Oc2cc3cc[nH]c(=O)c3cc2Cl)CC1 (stereo partly shown) , thanks. >10

Selectivity against PKG lookup needed for CCC(N)[C@]1(c2ccc(Br)cc2)CC[C@H](Oc2cc3cc[nH]c(=O)c3cc2Cl)CC1 (stereo partly shown) , thanks. >300

###

Listing of entries alongside the reported Selectivity against PKG.
STUDY_SYSTEM: recombinant human PKG1-beta (Homo sapiens)
Construct: Active recombinant human PKG1-beta (full-length, with N-terminal His-tag); His-tag (N); purchased Millipore GmbH, Schwalbach, Germany
ASSAY_REMARKS: Determination of Protein Kinase G inhibition (Caliper peptide phosphorylation assay)
Format: biochemical
TEST_CONDITIONS: recombinant human PKG1-beta versus ROCK II

Please review the following examples before continuing.
CCC(N)[C@]1(c2cccc(OC)c2)CC[C@@H](Oc2cc3cc[nH]c(=O)c3cc2Cl)CC1 (stereo partly shown) : >100
CC(N)C[C@]1(c2ccc(F)cc2)CC[C@H](Oc2cc3cc[nH]c(=O)c3cc2Cl)CC1 (stereo partly shown) : >100
NC(C1CCC(Oc2cc3cc[nH]c(=O)c3cc2Cl)CC1)C1CC1 (single isomer, unassigned) [Example 131] : >10

Next item in the queue.
Value wanted: Selectivity against PKG (recombinant human PKG1-beta (Homo sapiens)) of entry CCC(N)[C@]1(c2ccccc2OC(F)(F)F)CC[C@H](Oc2cc3cc[nH]c(=O)c3cc2Cl)CC1 (stereo partly shown) >1

###

STUDY_SYSTEM: recombinant human PKA (Homo sapiens)
Construct: Active recombinant human PKA (residues 1-351, N-terminal His-tag); His-tag (N); purchased Invitrogen, Karlsruhe, Germany
ASSAY_REMARKS: Determination of Protein Kinase A inhibition (Caliper peptide phosphorylation assay)
Type: biochemical
TEST_CONDITIONS: recombinant human PKA versus ROCK II
Listing of entries alongside the reported Selectivity against PKA.

Please review the following examples before continuing.
CCC(N)[C@]1(c2cc(F)cc(F)c2)CC[C@H](Oc2cc3cc[nH]c(=O)c3cc2Cl)CC1 (stereo partly shown) : >1000
CCC(N)[C@]1(c2ccccc2)CC[C@@H](Oc2cc3cc[nH]c(=O)c3cc2Cl)CC1 (stereo partly shown) : >1000
CCC(N)[C@]1(c2ccc(OC(F)(F)F)cc2)CC[C@H](Oc2cc3cc[nH]c(=O)c3cc2Cl)CC1 (stereo partly shown) : >1000

Next item in the queue.
Selectivity against PKA lookup needed for CCC(N)[C@]1(c2ccccc2)CC[C@H](Oc2cc3cc[nH]c(=O)c3cc2C)CC1 (stereo partly shown) , thanks. >300
